Where do these numbers come from? They come from ChEMBL document CHEMBL1147945.

# assay_summary: Drug level in BALB/c mouse plasma after 6 hrs at 10 mg/kg, ip
# Type: ADME, organism-based
# Set-up: dose 10 mg/kg, route intraperitoneal
# run_parameters: read-out: Drug uptake
quantity: concentration at 6 h (ng/mL)
Write the number in ng/mL without appending the unit.

*Q* // returns reported concentration at 6 h for input O=C(O)C[C@@H](NC(=O)CNC(=O)c1cc(O)cc(NC2=NCC(F)CN2)c1)c1cc(Cl)cc(Br)c1O (stereo partly specified)
*A* 19400

* * *

# experimental_target: Integrin alpha-V/beta-3 (Homo sapiens, UniProt P05106+P06756)
# Sequence (P05106 27-788 limits assumed): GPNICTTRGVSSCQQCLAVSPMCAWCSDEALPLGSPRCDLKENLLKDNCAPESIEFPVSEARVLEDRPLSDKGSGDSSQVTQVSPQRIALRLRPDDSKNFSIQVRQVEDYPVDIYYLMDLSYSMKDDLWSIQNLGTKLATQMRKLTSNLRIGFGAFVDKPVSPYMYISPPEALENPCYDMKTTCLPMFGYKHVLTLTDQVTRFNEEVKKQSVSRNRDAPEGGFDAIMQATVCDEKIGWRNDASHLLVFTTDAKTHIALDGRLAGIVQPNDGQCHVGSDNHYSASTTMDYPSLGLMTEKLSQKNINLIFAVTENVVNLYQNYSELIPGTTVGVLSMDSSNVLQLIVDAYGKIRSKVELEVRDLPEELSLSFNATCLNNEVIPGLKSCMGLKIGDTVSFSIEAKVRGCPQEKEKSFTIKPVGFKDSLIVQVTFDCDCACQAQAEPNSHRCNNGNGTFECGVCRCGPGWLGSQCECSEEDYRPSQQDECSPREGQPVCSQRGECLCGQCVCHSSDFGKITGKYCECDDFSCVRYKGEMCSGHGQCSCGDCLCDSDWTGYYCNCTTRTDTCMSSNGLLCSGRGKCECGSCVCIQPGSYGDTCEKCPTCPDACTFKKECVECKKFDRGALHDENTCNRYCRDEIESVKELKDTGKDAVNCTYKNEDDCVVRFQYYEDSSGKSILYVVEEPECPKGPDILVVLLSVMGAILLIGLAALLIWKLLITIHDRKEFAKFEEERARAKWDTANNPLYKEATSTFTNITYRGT
# Sequence (P06756 31-889 limits assumed): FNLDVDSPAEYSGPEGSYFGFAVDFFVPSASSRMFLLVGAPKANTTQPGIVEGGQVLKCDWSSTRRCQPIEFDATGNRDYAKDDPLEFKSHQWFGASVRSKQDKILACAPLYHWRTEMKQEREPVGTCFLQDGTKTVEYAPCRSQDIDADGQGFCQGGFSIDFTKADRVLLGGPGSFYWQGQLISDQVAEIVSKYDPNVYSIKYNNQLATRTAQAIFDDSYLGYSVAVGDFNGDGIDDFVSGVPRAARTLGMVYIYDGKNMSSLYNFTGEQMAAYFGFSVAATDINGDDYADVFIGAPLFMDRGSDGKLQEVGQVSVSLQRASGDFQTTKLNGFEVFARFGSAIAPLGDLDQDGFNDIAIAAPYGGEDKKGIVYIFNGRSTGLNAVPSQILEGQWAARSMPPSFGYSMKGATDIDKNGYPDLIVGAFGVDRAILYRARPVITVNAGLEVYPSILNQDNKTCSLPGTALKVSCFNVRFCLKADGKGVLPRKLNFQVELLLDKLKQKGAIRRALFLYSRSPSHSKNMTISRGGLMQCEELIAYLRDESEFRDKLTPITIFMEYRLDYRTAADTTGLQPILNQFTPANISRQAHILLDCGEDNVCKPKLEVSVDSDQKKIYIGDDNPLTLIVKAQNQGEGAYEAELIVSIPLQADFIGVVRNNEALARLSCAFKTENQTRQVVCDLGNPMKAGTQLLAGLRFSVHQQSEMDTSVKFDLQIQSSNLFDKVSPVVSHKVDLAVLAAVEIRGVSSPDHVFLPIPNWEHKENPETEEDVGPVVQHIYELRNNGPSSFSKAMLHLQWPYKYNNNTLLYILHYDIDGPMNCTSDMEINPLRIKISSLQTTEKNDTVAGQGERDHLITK
# Sequence (P06756 891-1048 limits assumed): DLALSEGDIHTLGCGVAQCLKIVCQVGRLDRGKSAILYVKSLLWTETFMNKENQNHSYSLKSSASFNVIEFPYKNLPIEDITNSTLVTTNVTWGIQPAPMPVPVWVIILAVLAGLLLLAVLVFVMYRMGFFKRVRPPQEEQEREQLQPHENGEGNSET
# assay_summary: Inhibition of alphaVbeta3 integrin receptor expressed in human 293 cells
quantity: pIC50
Quick note: pIC50 values are minus log10 of concentrations in mol/L.

Some compounds with recorded pIC50:
compound: O=C(O)C[C@@H](NC(=O)CNC(=O)c1cccc(NC2=NCC(O)CN2)c1)c1cc(Cl)cc(I)c1O (stereo partly drawn)
pIC50: 9.00
//
compound: O=C(O)C[C@@H](NC(=O)CNC(=O)c1cc(O)cc(NC2=NCCCN2)c1)c1cc(Cl)cc(I)c1O
pIC50: 8.05
//
compound: O=C(O)C[C@@H](NC(=O)CNC(=O)c1cc(O)cc(NC2=NCC(F)(F)CN2)c1)c1cc(Cl)cc(Br)c1O
pIC50: 8.30
//
compound: O=C(O)C[C@@H](NC(=O)CNC(=O)c1cccc(NC2=NCC(F)CN2)c1)c1cc(Br)cc(Cl)c1O (stereo partly drawn)
pIC50: 8.70
//
compound: O=C(O)C[C@@H](NC(=O)CNC(=O)c1cc(O)cc(NC2=NCC(F)CN2)c1)c1cc(Br)cc(Br)c1 (stereo partly drawn)
pIC50: 8.30
//
compound: O=C(O)C[C@@H](NC(=O)CNC(=O)c1cc(O)cc(NC2=NCC(F)CN2)c1)c1cc(Cl)cc(Br)c1O (stereo partly drawn)
pIC50: 9.00
//
compound: O=C(O)C[C@@H](NC(=O)CNC(=O)c1cc(O)cc(NC2=NCC(F)CN2)c1)c1cc(Cl)cc(Cl)c1 (stereo partly drawn)
pIC50: 7.96
//
compound: Nc1cc(NC2=NCC(F)CN2)cc(C(=O)NCC(=O)N[C@H](CC(=O)O)c2cc(Cl)cc(Br)c2O)c1 (stereo partly drawn)
pIC50: 8.52

*Q* Suppose we examine the compound O=C(O)C[C@@H](NC(=O)CNC(=O)c1cncc(NC2=NCC(F)CN2)c1)c1cc(Cl)cc(Br)c1O (stereo partly drawn) ; what pIC50 value has been reported?
*A* 9.15

*Q* Queued: O=C(O)C[C@@H](NC(=O)CNC(=O)c1cccc(NC2=NCCCN2)c1)c1cc(Br)cc(Br)c1O
*A* 8.40

*Q* Quick one: Cc1cc(C)c(O)c([C@@H](CC(=O)O)NC(=O)CNC(=O)c2cc(N)cc(NC3=NCC(F)CN3)c2)c1 (stereo partly drawn)
*A* 8.00

*Q* Ok, now Nc1cc(NC2=NCC(O)CN2)cc(C(=O)NCC(=O)N[C@H](CC(=O)O)c2cc(Br)cc(Br)c2O)c1 (stereo partly drawn)
*A* 8.15

*Q* Also need O=C(O)C[C@@H](NC(=O)CNC(=O)c1cccc(NC2=NCCCN2)c1)c1cc(Cl)cc(Br)c1O , thanks.
*A* 8.30

*Q* Try O=C(O)C[C@@H](NC(=O)CNC(=O)c1cc(O)cc(N=C2NCCCN2)c1)c1cc(Br)cc(Br)c1O next.
*A* 7.70

*Q* And the next one, O=C(O)C[C@@H](NC(=O)CNC(=O)c1cc(O)cc(NC2=NCC(F)CN2)c1)c1cc(Cl)cc(Cl)c1O (stereo partly drawn) ?
*A* 9.00

*Q* Now try O=C(O)C[C@@H](NC(=O)CNC(=O)c1cc(O)cc(NC2=NCCCN2)c1)c1cc(Cl)cc(Cl)c1O .
*A* 8.52

*Q* // next record O=C(O)C[C@@H](NC(=O)CNC(=O)c1cncc(NC2=NCC(F)CN2)c1)c1cc(Cl)cc(Cl)c1O (stereo partly drawn)
*A* 9.00

*Q* Thanks! And O=C(O)C[C@H](NC(=O)CNC(=O)c1cccc(NC2=NCC(F)CN2)c1)c1cc(Cl)cc(Br)c1O (stereo partly drawn) ?
*A* 9.70
